- MEASUREMENT TARGET: Nav1.8 (Homo sapiens)
- Construct: host or cells: HEK cells
- Sequence (Q9Y5Y9 whole entry): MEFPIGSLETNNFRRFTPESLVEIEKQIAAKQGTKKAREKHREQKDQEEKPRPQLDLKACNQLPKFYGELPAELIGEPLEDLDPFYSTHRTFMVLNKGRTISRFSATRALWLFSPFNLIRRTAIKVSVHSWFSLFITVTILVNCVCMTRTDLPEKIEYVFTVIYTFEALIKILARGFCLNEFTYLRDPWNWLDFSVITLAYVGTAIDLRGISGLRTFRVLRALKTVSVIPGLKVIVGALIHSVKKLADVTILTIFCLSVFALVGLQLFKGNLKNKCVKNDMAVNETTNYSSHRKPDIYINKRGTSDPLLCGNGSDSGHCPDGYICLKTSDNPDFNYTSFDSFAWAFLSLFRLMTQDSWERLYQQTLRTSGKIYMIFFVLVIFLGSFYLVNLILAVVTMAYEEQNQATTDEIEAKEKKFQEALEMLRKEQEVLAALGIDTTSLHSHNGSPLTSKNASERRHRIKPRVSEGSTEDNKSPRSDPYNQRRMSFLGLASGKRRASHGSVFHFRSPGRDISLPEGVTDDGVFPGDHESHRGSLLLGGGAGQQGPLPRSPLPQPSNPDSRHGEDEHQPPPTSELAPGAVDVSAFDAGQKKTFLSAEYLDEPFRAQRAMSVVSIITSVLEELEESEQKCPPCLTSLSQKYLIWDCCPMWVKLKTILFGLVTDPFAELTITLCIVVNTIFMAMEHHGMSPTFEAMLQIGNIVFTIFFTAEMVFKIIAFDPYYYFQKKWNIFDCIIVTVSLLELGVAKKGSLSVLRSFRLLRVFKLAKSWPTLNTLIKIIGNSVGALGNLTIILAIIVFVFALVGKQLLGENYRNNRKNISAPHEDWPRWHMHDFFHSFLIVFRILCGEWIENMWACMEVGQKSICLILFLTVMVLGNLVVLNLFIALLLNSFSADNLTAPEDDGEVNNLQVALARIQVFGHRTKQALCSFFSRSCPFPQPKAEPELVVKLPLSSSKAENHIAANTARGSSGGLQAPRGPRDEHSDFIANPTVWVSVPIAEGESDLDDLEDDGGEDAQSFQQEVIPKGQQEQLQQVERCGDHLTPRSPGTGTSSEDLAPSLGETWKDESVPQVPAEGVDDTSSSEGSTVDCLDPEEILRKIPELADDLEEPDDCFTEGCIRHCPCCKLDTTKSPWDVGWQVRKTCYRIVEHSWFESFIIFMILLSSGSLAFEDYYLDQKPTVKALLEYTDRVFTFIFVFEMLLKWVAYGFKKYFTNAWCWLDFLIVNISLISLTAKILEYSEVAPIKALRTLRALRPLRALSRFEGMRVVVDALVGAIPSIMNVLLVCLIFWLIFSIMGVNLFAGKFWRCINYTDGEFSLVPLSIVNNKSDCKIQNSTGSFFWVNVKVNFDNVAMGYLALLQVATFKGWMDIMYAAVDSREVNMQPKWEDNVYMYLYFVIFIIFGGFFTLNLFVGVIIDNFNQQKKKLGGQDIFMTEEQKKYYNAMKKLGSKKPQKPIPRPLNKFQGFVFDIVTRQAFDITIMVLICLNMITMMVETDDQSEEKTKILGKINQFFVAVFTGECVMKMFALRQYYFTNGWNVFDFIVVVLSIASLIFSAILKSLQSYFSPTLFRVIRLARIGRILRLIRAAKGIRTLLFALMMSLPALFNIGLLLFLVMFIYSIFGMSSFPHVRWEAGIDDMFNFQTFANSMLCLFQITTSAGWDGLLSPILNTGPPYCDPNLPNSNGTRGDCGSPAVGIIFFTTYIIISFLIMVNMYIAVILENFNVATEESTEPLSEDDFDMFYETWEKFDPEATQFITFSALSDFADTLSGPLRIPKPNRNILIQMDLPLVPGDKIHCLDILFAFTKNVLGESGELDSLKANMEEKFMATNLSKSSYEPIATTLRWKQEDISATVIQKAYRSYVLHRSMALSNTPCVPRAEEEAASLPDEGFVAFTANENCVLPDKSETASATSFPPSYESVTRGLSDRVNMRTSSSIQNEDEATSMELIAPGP
- ASSAY METHOD TEXT: VIPR (voltage/ion probe reader) membrane potential assay, Nav1.8
- Type: cell-based
- TEST PARAMETERS: HEK293, HEK cells expressing hNav1.8, veratridine
Label false (0) if inhibition at 10 µM falls below 10%; label true (1) in every other case.

# example entries with known answers
{"MOLECULE": "CC(CCc1ccccc1)NC(=O)c1cccc2ccccc12 (stereo not shown)", "ASSIGNED CLASS": "true (1)"}
{"MOLECULE": "CC(CCc1ccccc1)NCc1ccc(-c2ccc(Cl)cc2)o1 (stereo not shown)", "ASSIGNED CLASS": "true (1)"}

Now take the following molecule into account.
Test whether the molecule CC(CCc1ccccc1)NCc1ccc(-c2cccc(C(F)(F)F)c2)o1 (stereo not shown) records inhibition at 10 µM of 10% or higher.
true (1)

###

- MEASUREMENT TARGET: Nav1.7 (Homo sapiens)
- Construct: host or cells: HEK cells
- Sequence (Q15858 whole entry): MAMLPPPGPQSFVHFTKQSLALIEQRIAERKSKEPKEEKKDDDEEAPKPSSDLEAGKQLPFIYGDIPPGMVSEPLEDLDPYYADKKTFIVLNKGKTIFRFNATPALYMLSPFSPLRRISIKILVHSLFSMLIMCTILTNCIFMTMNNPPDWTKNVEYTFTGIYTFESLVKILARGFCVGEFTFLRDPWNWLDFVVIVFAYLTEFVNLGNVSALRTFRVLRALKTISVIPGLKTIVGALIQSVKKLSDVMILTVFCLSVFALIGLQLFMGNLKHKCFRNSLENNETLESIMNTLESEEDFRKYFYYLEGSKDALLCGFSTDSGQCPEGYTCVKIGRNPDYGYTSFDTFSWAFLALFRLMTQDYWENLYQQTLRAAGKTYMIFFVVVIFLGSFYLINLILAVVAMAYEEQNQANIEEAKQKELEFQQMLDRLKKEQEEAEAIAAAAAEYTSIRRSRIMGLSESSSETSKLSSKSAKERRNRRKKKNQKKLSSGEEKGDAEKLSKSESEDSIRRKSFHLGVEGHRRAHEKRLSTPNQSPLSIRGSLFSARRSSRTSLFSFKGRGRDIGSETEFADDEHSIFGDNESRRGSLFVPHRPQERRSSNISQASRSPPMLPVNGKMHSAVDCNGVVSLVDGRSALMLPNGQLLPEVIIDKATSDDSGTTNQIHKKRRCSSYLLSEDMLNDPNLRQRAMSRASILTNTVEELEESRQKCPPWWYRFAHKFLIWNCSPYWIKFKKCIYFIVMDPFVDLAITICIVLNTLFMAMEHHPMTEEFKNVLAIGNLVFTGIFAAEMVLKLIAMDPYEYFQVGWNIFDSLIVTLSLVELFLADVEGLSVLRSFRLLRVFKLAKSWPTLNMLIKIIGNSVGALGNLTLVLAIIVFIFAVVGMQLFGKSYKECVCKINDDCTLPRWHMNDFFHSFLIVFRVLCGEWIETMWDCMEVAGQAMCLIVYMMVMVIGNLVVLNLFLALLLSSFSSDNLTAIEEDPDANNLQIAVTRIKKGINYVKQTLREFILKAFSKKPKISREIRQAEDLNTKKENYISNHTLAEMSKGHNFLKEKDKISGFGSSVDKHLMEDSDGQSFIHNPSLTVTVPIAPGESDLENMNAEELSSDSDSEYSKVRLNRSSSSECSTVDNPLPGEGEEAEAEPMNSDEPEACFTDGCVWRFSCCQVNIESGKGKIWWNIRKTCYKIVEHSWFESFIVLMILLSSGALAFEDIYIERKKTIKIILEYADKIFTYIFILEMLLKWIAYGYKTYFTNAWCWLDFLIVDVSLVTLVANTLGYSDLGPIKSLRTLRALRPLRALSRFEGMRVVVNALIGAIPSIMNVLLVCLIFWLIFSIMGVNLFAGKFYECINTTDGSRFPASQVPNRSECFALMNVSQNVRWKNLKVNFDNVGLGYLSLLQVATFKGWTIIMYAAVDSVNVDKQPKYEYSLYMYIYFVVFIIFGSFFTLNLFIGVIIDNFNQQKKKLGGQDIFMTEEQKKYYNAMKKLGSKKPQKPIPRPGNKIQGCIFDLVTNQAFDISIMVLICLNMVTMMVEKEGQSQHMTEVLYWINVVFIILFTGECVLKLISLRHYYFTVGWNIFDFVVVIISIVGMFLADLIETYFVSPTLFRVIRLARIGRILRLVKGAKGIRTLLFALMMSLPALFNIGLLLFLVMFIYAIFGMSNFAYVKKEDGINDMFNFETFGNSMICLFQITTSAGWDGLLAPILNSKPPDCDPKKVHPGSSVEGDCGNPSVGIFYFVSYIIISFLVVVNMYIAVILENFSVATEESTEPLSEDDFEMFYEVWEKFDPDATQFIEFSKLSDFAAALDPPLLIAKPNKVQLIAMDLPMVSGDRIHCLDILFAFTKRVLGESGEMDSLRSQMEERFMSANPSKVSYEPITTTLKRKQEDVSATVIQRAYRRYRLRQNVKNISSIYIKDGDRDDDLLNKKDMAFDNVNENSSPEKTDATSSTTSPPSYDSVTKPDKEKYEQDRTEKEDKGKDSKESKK
- ASSAY METHOD TEXT: VIPR (voltage/ion probe reader) membrane potential assay, Nav1.7
- Type: cell-based
- TEST PARAMETERS: HEK293; 10uM; HEK cells expressing hNav1.7; veratridine
Record form. Attribute: inhibition at 10 µM. Fill in for each entry.
One number for each entry, in %.

{"MOLECULE": "COc1cc(CNCc2c[nH]c3ccccc23)cc(OC)c1OC [실시예 29, N-((1H-인돌-3-일)메틸)-1-(3,4,5-트리메톡시페닐)메탄아민]", "inhibition at 10 µM [%]": 16.4}
{"MOLECULE": "CC(CCc1ccccc1)NCc1ccc(N2CCN(C)CC2)cc1 (stereo not shown) [실시예 13, N-(4-(4-메틸피페라진-1-일)벤질)-4-페닐부탄-2-아민]", "inhibition at 10 µM [%]": 66.4}

// each molecule listed below needs its inhibition at 10 µM
1. COc1cc(CNC(=O)c2ccc3ccccc3n2)cc(OC)c1OC [실시예 41, N-(3,4,5-트리메톡시벤질)퀴놀린-2-카복스아미드]
2. C[C@H](NCc1c[nH]c2ccc(Cl)cc12)C(N)=O [실시예 3, (S)-2-((5-클로로-1H-인돌-3-일)메틸아미노)프로판아미드]
3. COc1ccc2[nH]cc(CNCc3cc(OC)c(OC)c(OC)c3)c2c1 [실시예 36]
4. CC(CCc1ccccc1)NCc1ccc(-c2ccc(Cl)cc2)o1 (stereo not shown) [실시예 15, N-((5-(4-클로로페닐)퓨란-2-일)메틸)-4-페닐부탄-2-아민]

1. 71.7
2. 2.46
3. 23.7
4. 34.6

Provide each entry's inhibition at 10 µM from the list below.
1. COc1cc(CNCc2c[nH]c3ccc(OCc4ccccc4)cc23)cc(OC)c1OC [실시예 33]
2. CC(CCc1ccccc1)NCc1ccc(-c2cccc(C(F)(F)F)c2)o1 (stereo not shown) [실시예 12]

1. 34.9
2. 104

Parameter requested: inhibition at 10 µM. Apply to each item below.
1. COc1ccc2[nH]cc(CN[C@@H](C)C(N)=O)c2c1 [실시예 5, (S)-2-((5-메톡시-1H-인돌-3-일)메틸아미노)프로판아미드]
2. CC(CCc1ccccc1)NCc1ccc(Oc2ccc(F)cc2)cc1 (stereo not shown) [실시예 23, N-(4-(4-플루오로페녹시)벤질)-4-페닐부탄-2-아민]

[4.3, 33.9]

###

- MEASUREMENT TARGET: Nav1.8 (Homo sapiens)
- Construct: host or cells: HEK cells
- ASSAY METHOD TEXT: VIPR (voltage/ion probe reader) membrane potential assay, Nav1.8
- Type: cell-based
- TEST PARAMETERS: HEK293, HEK cells expressing hNav1.8, veratridine
Assignment: determine reported inhibition at 10 µM for the given compounds.
Answers are plain numbers, in %.

{"COMPOUND": "NC(=O)[C@@H](NCc1ccc(Oc2ccc(Cl)cc2)cc1)c1ccccc1 [실시예 11, (S)-2-(4-(4-클로로페녹시)벤질아미노)-2-페닐아세트아미드]", "UOM": "%", "DATA VALUE": 19.5}

Go through the items and report each one's inhibition at 10 µM.
1. COc1cc(CNCc2c[nH]c3c([N+](=O)[O-])cccc23)cc(OC)c1OC
2. CC(CCc1ccccc1)NCc1ccc(N2CCOCC2)cc1 (stereo not shown)
3. CC(CCc1ccccc1)NCc1ccc(Oc2ccc(C#N)cc2)cc1 (stereo not shown)
4. C[C@H](NCc1c[nH]c2ccc(OCc3ccccc3)cc12)C(N)=O [실시예 1, (S)-2-((5-(벤질옥시)-1H-인돌-3-일)메틸아미노)프로판아미드]
5. COc1cc(CNCc2c(-c3ccccc3)[nH]c3ccccc23)cc(OC)c1OC
6. COc1cc(CNC(=O)c2ccc3ccccc3n2)cc(OC)c1OC
7. COc1cc(CNCc2c[nH]c3ccc(Br)cc23)cc(OC)c1OC
8. COc1ccc(-c2ccc(CNC(C)CCc3ccccc3)o2)cc1Cl (stereo not shown)

1: 8.81; 2: 10.2; 3: 42.2; 4: 19.7; 5: 3.3; 6: 19.3; 7: 13.9; 8: 6.75

Below are some compounds; for each one, tell me its inhibition at 10 µM.
1. C[C@H](NCc1c[nH]c2ccc(Br)cc12)C(N)=O [실시예 2, (S)-2-((5-브로모-1H-인돌-3-일)메틸아미노)프로판아미드]
2. CC(CCc1ccccc1)NCc1ccc(N2CCN(C)CC2)cc1 (stereo not shown)
3. NC(=O)[C@@H](NCc1cc(-c2ccc(Cl)cc2)on1)c1ccccc1
4. COc1cc(CNCc2c[nH]c3ccc(OCc4ccccc4)cc23)cc(OC)c1OC

1. 27.4
2. 4.97
3. 1.77
4. 5.87

###

- MEASUREMENT TARGET: Nav1.7 (Homo sapiens)
- Construct: host or cells: HEK cells
- ASSAY METHOD TEXT: VIPR (voltage/ion probe reader) membrane potential assay, Nav1.7
- Format: cell-based
- TEST PARAMETERS: HEK293; 10uM; HEK cells expressing hNav1.7; veratridine
Quick rule: inhibition at 10 µM of at least 20% means met, below that means not met.

Some solved entries appear below for comparison.
{"MOLECULE": "NC(=O)[C@@H](NCc1ccc(Oc2ccc(F)cc2)cc1)c1ccccc1 [실시예 10, (S)-2-(4-(4-플루오로페녹시)벤질아미노)-2-페닐아세트아미드]", "ASSIGNED CLASS": "met"}
{"MOLECULE": "CC(CCc1ccccc1)NCc1ccc(N2CCOCC2)cc1 (stereo not drawn) [실시예 14, N-(4-모폴리노벤질)-4-페닐부탄-2-아민]", "ASSIGNED CLASS": "met"}
{"MOLECULE": "NC(=O)[C@@H](NCc1ccc(Oc2ccc(Cl)cc2)cc1)c1ccccc1 [실시예 11, (S)-2-(4-(4-클로로페녹시)벤질아미노)-2-페닐아세트아미드]", "ASSIGNED CLASS": "not met"}
{"MOLECULE": "CC(CCc1ccccc1)NCc1ccc(Oc2ccc(C#N)cc2)cc1 (stereo not drawn) [실시예 20, 4-(4-((4-페닐부탄-2-일)아미노메틸)페녹시)벤조나이트릴]", "ASSIGNED CLASS": "met"}
{"MOLECULE": "C[C@H](NCc1c[nH]c2ccc(OCc3ccccc3)cc12)C(N)=O [실시예 1, (S)-2-((5-(벤질옥시)-1H-인돌-3-일)메틸아미노)프로판아미드]", "ASSIGNED CLASS": "not met"}

Please turn your attention to the following entry.
Determine whether measured inhibition at 10 µM meets or exceeds 20% for CC(CCc1ccccc1)NC(=O)c1cccc2ccccc12 (stereo not drawn) [실시예 27, N-(4-페닐부탄-2-일)-1-나프타미드]
not met

###

- MEASUREMENT TARGET: Nav1.7 (Homo sapiens)
- Construct: host or cells: HEK cells
- ASSAY METHOD TEXT: VIPR (voltage/ion probe reader) membrane potential assay, Nav1.7
- Assay type: cell-based
- TEST PARAMETERS: HEK293; 10uM; HEK cells expressing hNav1.7; veratridine
MEASUREMENT TYPE: inhibition at 10 µM (%)
Answers are plain numbers, in %.

Please state inhibition at 10 µM for every molecule in the list that follows.
1. COc1cc(CNCc2ccc(Oc3ccc(F)cc3)cc2)cc(OC)c1OC
2. COc1cc(CNCc2c(-c3ccccc3)[nH]c3ccccc23)cc(OC)c1OC
3. COc1cc(CNC(=O)c2ccc(-c3ccccc3)cc2)cc(OC)c1OC [실시예 38, N-(3,4,5-트리메톡시벤질)-[1,1'-바이페닐]-4-카복스아미드]
4. COc1cc(CNCc2ccc(Oc3ccc(Cl)cc3)cc2)cc(OC)c1OC

16.6
12.1
6.9
15.2

###

- MEASUREMENT TARGET: Nav1.7 (Homo sapiens)
- Construct: host or cells: HEK cells
- ASSAY METHOD TEXT: VIPR (voltage/ion probe reader) membrane potential assay, Nav1.7
- Type: cell-based
- TEST PARAMETERS: HEK293; 10uM; HEK cells expressing hNav1.7; veratridine
Kind request: treat 30% as inclusive, so inhibition at 10 µM at 30% or higher is Y, anything lower is N.

Here are 6 compounds together with their reported answers.
{"COMPOUND": "COc1cc(CNCc2c[nH]c3ccc(Br)cc23)cc(OC)c1OC", "ASSIGNED CLASS": "N"}
{"COMPOUND": "Cc1onc(-c2ccc(Cl)cc2)c1C(=O)NC(C)CCc1ccccc1 (centres unmarked)", "ASSIGNED CLASS": "N"}
{"COMPOUND": "COc1cc(CNCc2c[nH]c3cc(F)ccc23)cc(OC)c1OC", "ASSIGNED CLASS": "Y"}
{"COMPOUND": "CC(CCc1ccccc1)NCc1c[nH]c2ccccc12 (centres unmarked)", "ASSIGNED CLASS": "N"}
{"COMPOUND": "C[C@H](NCc1c[nH]c2ccc(Br)cc12)C(N)=O [실시예 2, (S)-2-((5-브로모-1H-인돌-3-일)메틸아미노)프로판아미드]", "ASSIGNED CLASS": "Y"}
{"COMPOUND": "CC(CCc1ccccc1)NCc1c[nH]c2ccc(Cl)cc12 (centres unmarked)", "ASSIGNED CLASS": "Y"}

Does the compound COc1ccc(-c2ccc(CNC(C)CCc3ccccc3)o2)cc1Cl (centres unmarked) have recorded inhibition at 10 µM that is 30% or more?
Y

Threshold query (inhibition at 10 µM >= 30%) on CC(CCc1ccccc1)NC(=O)c1ccc(-c2ccccc2)cc1 (centres unmarked) [실시예 25, N-(4-페닐부탄-2-일)-[1,1'-바이페닐]-4-카복스아미드]
Y

Hi team, for CC(CCc1ccccc1)NCc1ccc(Oc2ccc(Cl)cc2)cc1 (centres unmarked) , is the recorded inhibition at 10 µM at or above 30%?
N

Is inhibition at 10 µM for "COc1cc(CNCc2c[nH]c3c([N+](=O)[O-])cccc23)cc(OC)c1OC" at or above 30%?
N
